Numbers sourced from patent US20230331827A1.

This listing pairs molecules with measured IC50.
Target: T1, human Kv1.3 (huKv1.3) (Homo sapiens, UniProt P22001)
T1 construct: host or cells: CHO
T1 sequence (P22001 whole entry): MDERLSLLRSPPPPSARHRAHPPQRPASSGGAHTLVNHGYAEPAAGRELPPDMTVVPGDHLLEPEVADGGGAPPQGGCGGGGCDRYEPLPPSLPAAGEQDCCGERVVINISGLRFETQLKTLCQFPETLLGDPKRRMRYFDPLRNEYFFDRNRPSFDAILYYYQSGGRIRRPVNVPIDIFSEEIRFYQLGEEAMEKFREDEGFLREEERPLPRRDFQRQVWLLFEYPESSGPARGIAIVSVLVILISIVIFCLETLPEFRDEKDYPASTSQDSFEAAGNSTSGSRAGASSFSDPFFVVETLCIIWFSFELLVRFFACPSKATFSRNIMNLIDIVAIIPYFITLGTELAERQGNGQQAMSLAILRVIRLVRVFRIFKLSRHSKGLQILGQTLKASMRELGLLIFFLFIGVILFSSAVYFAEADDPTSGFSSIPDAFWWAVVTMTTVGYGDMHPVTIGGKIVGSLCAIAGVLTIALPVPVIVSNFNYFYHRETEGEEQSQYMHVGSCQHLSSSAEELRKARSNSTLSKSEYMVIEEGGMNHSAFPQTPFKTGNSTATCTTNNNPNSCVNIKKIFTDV
Assay: QPatch automated patch-clamp, CHO cells stably expressing human Kv1.3 (Examples 19-21)
Assay type: cell-based
Settings: four-point curves of FIG. 33, Table E20; read-out: Kv1.3 IC50
Experimental: The effect of these KnotBodies on cells expressing human Kv1.3 (huKv1.3) channel was assessed using the QPatch automated patch-clamp platform (Sophion, Ballerup, Denmark). […] A series of depolarising voltage (channel activating) pulses were used to monitor the channel currents upon adding control (extracellular solution) to define a control baseline of current activity. […] From these concentration-response curves IC50 values were calculated. […]
All answers are understood in nM, so give the number only.

MOLECULE	UNIT	READING
KB_A12_Odk2: OdK2 in VL CDR2 of KB_A12, IgG (antibody, V domains shown) VH: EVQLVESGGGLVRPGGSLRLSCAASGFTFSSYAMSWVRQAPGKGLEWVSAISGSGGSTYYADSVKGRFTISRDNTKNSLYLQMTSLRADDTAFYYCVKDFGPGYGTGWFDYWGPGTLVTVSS VL: QSVLTQPPSVSEAPRQRVTITCSGSSSNIGNNAVNWYQQLPGKAPKLLIYAAGRGVPTDVKCRGSPQCIQPCKDAGMRFGKCMNGKCHCTPKANSGVSDRFSAAKSGTSASLAINGLRSEDEADYYCAAWDDSLNGYVFGTGTKLTVLG	nM	457
KB_A12_Odk2 short: truncated OdK2 in VL CDR2 of KB_A12, IgG (antibody, V domains shown) VH: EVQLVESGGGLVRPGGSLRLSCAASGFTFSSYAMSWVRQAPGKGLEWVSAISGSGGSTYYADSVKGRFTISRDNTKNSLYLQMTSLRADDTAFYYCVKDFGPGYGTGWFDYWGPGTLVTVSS VL: QSVLTQPPSVSEAPRQRVTITCSGSSSNIGNNAVNWYQQLPGKAPKLLIYAAGRVKCRGSPQCIQPCKDAGMRFGKCMNGKCHCTPKANSGVSDRFSAAKSGTSASLAINGLRSEDEADYYCAAWDDSLNGYVFGTGTKLTVLG	nM	49
KB_A12_HsTx1 (antibody, V domains shown) VH: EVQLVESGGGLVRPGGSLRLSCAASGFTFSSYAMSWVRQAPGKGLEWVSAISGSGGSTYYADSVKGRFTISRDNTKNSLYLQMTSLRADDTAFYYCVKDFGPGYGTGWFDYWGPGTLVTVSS VL: QSVLTQPPSVSEAPRQRVTITCSGSSSNIGNNAVNWYQQLPGKAPKLLIYAAGRASCRTPKDCADPCRKETGCPYGKCMNRKCKCNRCANSGVSDRFSAAKSGTSASLAINGLRSEDEADYYCAAWDDSLNGYVFGTGTKLTVLG	nM	15
KB_A12_ADWX1 short: truncated ADWX-1 in VL CDR2 of KB_A12, IgG (antibody, V domains shown) VH: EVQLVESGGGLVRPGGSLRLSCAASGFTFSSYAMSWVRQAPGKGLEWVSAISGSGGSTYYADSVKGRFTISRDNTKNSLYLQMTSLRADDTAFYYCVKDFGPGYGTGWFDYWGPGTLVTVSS VL: QSVLTQPPSVSEAPRQRVTITCSGSSSNIGNNAVNWYQQLPGKAPKLLIYAAGRVKCKHSRQCLKPCKDAGMRFGKCTNGKCHCTPKANSGVSDRFSAAKSGTSASLAINGLRSEDEADYYCAAWDDSLNGYVFGTGTKLTVLG	nM	251

In one line, give reported IC50 of the entry KB_A12_KTX: kaliotoxin in VL CDR2 of KB_A12, IgG1 (antibody) VH: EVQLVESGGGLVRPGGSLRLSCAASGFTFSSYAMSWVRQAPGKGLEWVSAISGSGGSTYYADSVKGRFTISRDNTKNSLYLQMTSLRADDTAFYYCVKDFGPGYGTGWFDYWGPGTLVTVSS VL: QSVLTQPPSVSEAPRQRVTITCSGSSSNIGNNAVNWYQQLPGKAPKLLIYAAGRGVEINVKCSGSPQCLKPCKDAGMRFGKCMNRKCHCTPKANSGVSDRFSAAKSGTSASLAINGLRSEDEADYYCAAWDDSLNGYVFGTGTKLTVLGQP .
1540

Given KB_A12_Vm24: Vm24 in VL CDR2 of KB_A12, IgG (antibody, V domains shown) VH: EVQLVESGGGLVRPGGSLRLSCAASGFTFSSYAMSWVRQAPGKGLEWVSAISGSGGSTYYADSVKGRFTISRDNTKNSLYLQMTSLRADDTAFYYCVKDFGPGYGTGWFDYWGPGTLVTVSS VL: QSVLTQPPSVSEAPRQRVTITCSGSSSNIGNNAVNWYQQLPGKAPKLLIYAAGRAAAISCVGSPECPPKCRAQGCKNGKCMNRKCKCYYCANSGVSDRFSAAKSGTSASLAINGLRSEDEADYYCAAWDDSLNGYVFGTGTKLTVLG , respond with its IC50.
12

Fill in IC50 for record KB_A12_AnTx 2 M: AnTx N17A/F32T in VL CDR2 of KB_A12, IgG (antibody, V domains shown) VH: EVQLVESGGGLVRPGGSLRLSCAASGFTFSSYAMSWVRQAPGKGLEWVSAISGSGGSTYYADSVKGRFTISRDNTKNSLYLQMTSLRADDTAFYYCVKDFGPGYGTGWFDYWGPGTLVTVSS VL: QSVLTQPPSVSEAPRQRVTITCSGSSSNIGNNAVNWYQQLPGKAPKLLIYAAGRQKECTGPQHCTNFCRKAKCTHGKCMNRKCKCTNCKANSGVSDRFSAAKSGTSASLAINGLRSEDEADYYCAAWDDSLNGYVFGTGTKLTVLG
110

Kindly indicate its recorded IC50. Item: KB_A12_ShK: ShK toxin in VL CDR2 of KB_A12, IgG1 (antibody, V domains shown) VH: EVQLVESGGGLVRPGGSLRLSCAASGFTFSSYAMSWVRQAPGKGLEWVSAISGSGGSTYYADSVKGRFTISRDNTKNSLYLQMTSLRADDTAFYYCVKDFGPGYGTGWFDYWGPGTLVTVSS VL: QSVLTQPPSVSEAPRQRVTITCSGSSSNIGNNAVNWYQQLPGKAPKLLIYAAGRRSCIDTIPKSRCTAFQCKHSMKYRLSFCRKTCGTCANSGVSDRFSAAKSGTSASLAINGLRSEDEADYYCAAWDDSLNGYVFGTGTKLTVLG
13
